# maps each entry to its IC50
# System: K562
# assay_protocol: Antiproliferative activity against human K562 cells assessed as reduction in cell viability measured after 6 days by MTT assay
# Type: functional, cell-based
# study_conditions: K562, 144 h
experimental_readout: IC50 (nM)

>  <compound>
CC(=O)OC[C@@H](OCc1ccccc1)[C@H]1OC(=O)C=C[C@H]1OCc1ccccc1

>  <unit_spec>
nM

>  <number>
880

$$$$
>  <compound>
O=C1C=C[C@@H](OCc2ccccc2)[C@@H]([C@@H](COC(=O)/C=C/c2ccc([N+](=O)[O-])cc2)OCc2ccccc2)O1

>  <unit_spec>
nM

>  <number>
1270

$$$$
>  <compound>
COc1cccc(C(=O)OC[C@@H](OC(=O)c2cccc(OC)c2)[C@H]2OC(=O)C=C[C@H]2OC(=O)c2cccc(OC)c2)c1

>  <unit_spec>
nM

>  <number>
4650

$$$$
>  <compound>
CC(=O)O[C@@H]1C=CC(=O)O[C@@H]1[C@@H](COC(=O)c1ccc(Cl)cc1)OC(C)=O

>  <unit_spec>
nM

>  <number>
3690

$$$$
>  <compound>
O=C1CC2OCC(OCc3ccccc3)C(O1)C2OCc1ccccc1 (configuration not stated)

>  <unit_spec>
nM

>  <number>
8100

$$$$
>  <compound>
O=C1C=C[C@@H](OCc2ccccc2)[C@@H]([C@@H](COC(=O)/C=C/c2ccc(F)cc2)OCc2ccccc2)O1

>  <unit_spec>
nM

>  <number>
1010

$$$$
>  <compound>
O=C1CC2OCC(O)C(O1)C2O (configuration not stated)

>  <unit_spec>
nM

>  <number>
2920

$$$$
>  <compound>
CC(=O)O[C@@H]1C=CC(=O)O[C@@H]1[C@@H](COC(=O)/C=C/c1ccc(F)cc1)OC(C)=O

>  <unit_spec>
nM

>  <number>
3460

$$$$
>  <compound>
CC(=O)O[C@@H]1C=CC(=O)O[C@@H]1[C@@H](COC(=O)c1ccc([N+](=O)[O-])cc1)OC(C)=O

>  <unit_spec>
nM

>  <number>
7640

$$$$
>  <compound>
CC(=O)O[C@@H]1C=CC(=O)O[C@@H]1[C@@H](COC(=O)/C=C/c1ccc([N+](=O)[O-])cc1)OC(C)=O

>  <unit_spec>
nM

>  <number>
2340

$$$$
>  <compound>
O=C1C=C[C@@H](OC(=O)c2ccccc2)[C@@H]([C@@H](COC(=O)c2ccccc2)OC(=O)c2ccccc2)O1

>  <unit_spec>
nM

>  <number>
3250

$$$$
>  <compound>
COc1ccc(/C=C/C(=O)OC[C@@H](OCc2ccccc2)[C@H]2OC(=O)C=C[C@H]2OCc2ccccc2)cc1

>  <unit_spec>
nM

>  <number>
430

$$$$
>  <compound>
COc1ccc(/C=C/C(=O)OC[C@@H](OC(C)=O)[C@H]2OC(=O)C=C[C@H]2OC(C)=O)cc1

>  <unit_spec>
nM

>  <number>
6960

$$$$
>  <compound>
O=C1C=C[C@@H](OCc2ccccc2)[C@@H]([C@@H](COC(=O)/C=C/c2ccccc2)OCc2ccccc2)O1

>  <unit_spec>
nM

>  <number>
1590

$$$$
>  <compound>
O=C1C=C[C@@H](OCc2ccccc2)[C@@H]([C@@H](CO)OCc2ccccc2)O1

>  <unit_spec>
nM

>  <number>
1420

$$$$
>  <compound>
CC(=O)OC[C@@H](OC(C)=O)[C@H]1OC(=O)C=C[C@H]1OC(C)=O

>  <unit_spec>
nM

>  <number>
7540

$$$$
>  <compound>
CO[C@H]1CC(=O)O[C@H]([C@@H](COC(=O)/C=C/c2ccc([N+](=O)[O-])cc2)OC(C)=O)[C@@H]1OC(C)=O

>  <unit_spec>
nM

>  <number>
2380

$$$$
